IC50 for Vitamin D3 receptor (Homo sapiens, UniProt P11473), merged from several publications.
value-type: IC50 (µM)

>>> measured_number("C=C1[C@H](O)CC(=C/C=C2\\CCC[C@]3(C)[C@@H]([C@H](C)CC#C[C@@H](O)CC45CC6CC(CC(C6)C4)C5)CC[C@@H]23)C[C@H]1O")
0.012

P: CC(/C=C/C(=O)NO)=C\C(C)C1CCC2/C(=C/C=C3CC(O)CC(O)C3)CCCC21C (configuration not stated)
Q: CCn1cc(C(CC)(CC)c2ccc(C#CC(O)(CC)CC)c(C)c2)cc1C(=O)NCCN(C)C
R: C=C1[C@H](O)CC(=C/C=C2\CCC[C@]3(C)[C@@H]([C@H](C)CC#C[C@H](O)C45CC6CC(CC(C6)C4)C5)CC[C@@H]23)C[C@H]1O
S: CCn1c(C(=O)NCCCN2CCOCC2)ccc1C(CC)(CC)c1ccc(OCC(O)C(C)(C)C)c(C)c1 (configuration not stated)
(Q) Ascending by IC50, please. Respond with the label ranking, as requested.
(A) R, Q, P, S
